# EXPERIMENTAL_PROTOCOL: qHTS for Inhibitors of the Functional Ribonucleoprotein Complex (vRNP) of Lassa (LASV) Arenavirus: LASV Primary Screen - GLuc reporter signal (AID 1347082); further: nearly all actives have a fitted effect of over 60% in size
# SETUP_CONDITIONS: LASV minigenome vRNP, Gaussia luciferase reporter; series mostly up to 57.5 µM
Results filed as inconclusive are left out. Activity calls are given as the source filed them. The call rests on the fitted dose curve; tested in HEK293 reporter line.
Assign a class; possible classes are active, inactive

Worked set:
MOLECULE | ANSWER_LABEL
CCCCCCCCCCCCCC[C@@H](O)[C@@H](O)[C@@H](N)CO | inactive
C=CC[N+]1([C@H]2C[C@H]3[C@@H]4CC[C@H]5C[C@H](O)[C@@H](N6CCOCC6)C[C@]5(C)[C@@H]4CC[C@]3(C)[C@H]2OC(C)=O)CCCC1 | inactive
OC[C@H]1O[C@@H](n2cnc3c(Nc4ccccc4)ncnc32)[C@H](O)[C@@H]1O | inactive
O=C(c1cncc(Br)c1)N1CCC(N2CCCC2)CC1 | inactive
Cc1cccc(C)c1OCC(N)C(C)C (centres undefined) | inactive

Hi team, can someone confirm the assay call for O=C(CCCCO)CCCCCCCC[C@H]1N[C@H](CO)[C@H](O)[C@@H]1O[C@@H]1O[C@H](CO)[C@@H](O)[C@H](O)[C@H]1O ?
inactive

Would you kindly repeat that for S=C(S)OC1CC2CC1C1CCCC21 (centres undefined) ?
inactive

Would you kindly repeat that for COc1cc(NC(=O)c2ccc(-c3ccc(Cl)cc3)o2)cc(OC)c1 ?
active

Would you kindly repeat that for Nc1nc2c(nc(Br)n2C2OC3COP(=O)(O)O[C@@H]3C2O)c(=O)[nH]1 (some centres undefined) ?
inactive
